Values compiled from patent US9695155B2.

Recorded Plant response rating, Barnyardgrass values for a group of molecules are listed next.
# System: barnyardgrass
# Test: Test A postemergence
# Assay type: in vivo, Echinochloa crus-galli
# Setup Conditions: 500 g ai/ha, 0 to 100 scale where 0 is no effect and 100 is complete control
# Text: […]
Give the figure by itself; no unit, no explanation.

O=Cc1cccc(Oc2ncc(Cl)cn2)c1-n1cc(I)cn1; 0

Ask: # input molecule: `Cc1cnc(Oc2cccc(C#N)c2-n2cc(C(F)(F)F)cn2)nc1` ; wanted: its Plant response rating, Barnyardgrass
Result: 100

Ask: What measured Plant response rating, Barnyardgrass goes with `Clc1cnc(Oc2cccc(Br)c2-n2cc(Cl)cn2)nc1` ?
Result: 100
